Can you tell me t½ for the items I'm about to list?
# Tested System: T1, hGITR.mmh (human)
# T1 construct: soluble monomeric construct; also called human (h) GITR.mmh; monomeric human GITR
# T1 chain: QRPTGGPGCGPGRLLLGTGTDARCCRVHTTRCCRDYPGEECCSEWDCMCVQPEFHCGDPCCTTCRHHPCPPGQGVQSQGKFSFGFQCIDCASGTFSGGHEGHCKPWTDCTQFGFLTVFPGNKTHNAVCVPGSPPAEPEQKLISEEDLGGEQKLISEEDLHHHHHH
# Protocol: SPR 37C, mAb capture
Param answer (str): number followed by unit.

Identify the reported t½ for the following entry. H4H14530P (antibody, human IgG4, V domains shown, human IgG4 (H4H)) VH: QLQLQESGPGLVKPSETLSLTCTVSGGSISSTNHYWGWIRQPPGKGLEWIGNVYYIGNAYYNPSLKTGVTFSVDTSKNQFSLNLRSVTAADTAMYYCARLSNWNFLDLWGQGTLVTVSS VL: EIVMTQSPATLSVSPGERATLSCRASQSISSNLAWYQQKPGQAPRLLIYGASTRATGIPARFSGSGSGTEFTLTISSLQSEDFAVYYCQQFNNWLSFGGGTKVEIK
8.4 min

Return reported t½. Input binder: H1H14495P (antibody, human IgG1, V domains shown, human IgG1 (H1H)) VH: QVQLVESGGGAVQPGTSLRLSCAASGFTFSSFGMHWVRQAPGKGLEWVSVIWYEGSNKYYADSVKGRFTISRDNSRNTLSLQMDSLRVEDTAVYYCARGGELGVNYYYDMDVWGQGTTVTVSS VL: DIQMTQSPSSLSASVGDRVTITCRASQDIKNDLGWFQQKAGKAPKRLFYATSSLQSGVPSRFSGSGSGTEFTLTISSLQPEDFATYYCLQVHSYPRTFGQGTKVEIK
9.1 min

Item H4H14516P (antibody, human IgG4, V domains shown, human IgG4 (H4H)) VH: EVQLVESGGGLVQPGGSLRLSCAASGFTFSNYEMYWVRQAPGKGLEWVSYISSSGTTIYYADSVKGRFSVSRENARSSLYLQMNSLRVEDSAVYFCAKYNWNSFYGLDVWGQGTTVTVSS VL: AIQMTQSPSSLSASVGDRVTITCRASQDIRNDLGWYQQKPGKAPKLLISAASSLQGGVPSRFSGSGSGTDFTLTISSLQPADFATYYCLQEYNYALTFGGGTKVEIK : provide t½
1.6 min

# return recorded t½ for input H1H14524P (antibody, human IgG1, V domains shown, human IgG1 (H1H)) VH: QVQLVESGGGVAQPGRSLSLSCAASGFTFSDYGMHWVRQAPGKGLEWVAVIWYAGSNKYYADSVKDRFTISRDNSKNTLYLQMRSLRVEDTAVYYCARGGELRLDYYSGLDVWGQGTTVTVSS VL: DIQMTQSPSSLSASVGDRVTVTCRASQGIRSDLGWYQQKPGKAPKRLIYAASSFQSGVPSRFSGSGSGTEFTLTISSLHPEDFATYYCLQSNNYPWTFGQGTKVEIK
7.9 min
